- SUBJECT_OF_TEST: human 5-HT2C receptors (Homo sapiens)
- Construct: expressed in transfected cells; host or cells: CHO-K1 cells
- Sequence (P28335 33-458): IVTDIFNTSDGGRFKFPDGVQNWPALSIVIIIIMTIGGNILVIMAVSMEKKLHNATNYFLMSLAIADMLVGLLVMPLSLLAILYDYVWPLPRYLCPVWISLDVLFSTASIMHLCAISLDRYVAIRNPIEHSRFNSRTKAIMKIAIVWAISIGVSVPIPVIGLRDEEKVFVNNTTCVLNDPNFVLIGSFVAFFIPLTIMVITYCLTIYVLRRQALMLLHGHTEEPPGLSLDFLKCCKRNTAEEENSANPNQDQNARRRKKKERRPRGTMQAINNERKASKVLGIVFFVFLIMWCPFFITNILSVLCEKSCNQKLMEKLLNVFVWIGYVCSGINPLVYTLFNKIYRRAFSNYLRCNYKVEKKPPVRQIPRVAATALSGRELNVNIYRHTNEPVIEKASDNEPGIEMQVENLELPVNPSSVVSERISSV
- ASSAY: In vitro test of agonistic potency on human 5-HT2C receptor (change in intracellular Ca2+)
- Type: cell-based
- RECORDED_CONDITIONS: CHO-K1 cells expressing recombinant human 5-HT2C receptors; intracellular Ca2+ (Fluo-4)
PARAMETER_MEASURED: EC50 (nM)
Give bare numbers, in nM.

Exercise: // returns reported EC50 for input CC(C)N(C)c1cnc2c(n1)OCCNC2.Cl [Compound A′]
Solution: 2.6
